In this section we review reported thermal shift delta Tm values for a set of molecules.
System: LOC_OS07G07230-cb001;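 further: purified Escherichia coli-expressed rice kinase domain construct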
Experiment: thermal shift delta Tm vs DMSO control; higher = stronger stabilization (binding)
Conditions: 12.5 µM; protein concentration 2 µM
# output: bare number, implied unit °C

{"Molecule": "Cc1[nH]nc2ccc(-c3cncc(OC[C@@H](N)Cc4ccccc4)c3)cc12", "Readout Value": 0}
{"Molecule": "Cc1nc(-c2cn3c(n2)-c2ccc(-c4cnn(C(C)(C)C(N)=O)c4)cc2OCC3)n(C(C)C)n1 [Taselisib (GDC 0032)]", "Readout Value": 0.87}
{"Molecule": "CC1(C)CNc2cc(NC(=O)c3cccnc3NCc3ccncc3)ccc21 [Motesanib Diphosphate (AMG-706)]", "Readout Value": 0.81}
{"Molecule": "Cn1ncc(Cl)c1-c1cc(C(=O)N[C@H](CN)Cc2ccc(F)c(F)c2)oc1Cl", "Readout Value": -0.13}
{"Molecule": "CC(=O)c1c(C)c2cnc(Nc3ccc(N4CCNCC4)cn3)nc2n(C2CCCC2)c1=O", "Readout Value": 0.73}

Here is the next item to consider.
(Q) Lab request: please report thermal shift delta Tm under test system LOC_OS07G07230-cb001 for CCCCOc1c(C(=O)c2c(F)cc(C)cc2F)c[nH]c2nncc1-2;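 further: purified Escherichia coli-expressed rice kinase domain construct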
(A) -0.1
